All values here come from paper PMC6237739.

# TARGET OF ASSAY: rS1-D34 (Vibrio vulnificus CMCP6, UniProt A0A3Q0L6Y6)
# TEST SUMMARY: NMR titration
PARAMETER MEASURED: pKd
When answering, recall that pKd equals minus log10 of the concentration in mol/L, and write that number alone.

* UCAUGAAU (ssRNA) [Asw-8] | 3.71

Could you now look at the following binder, please?
Q. Recorded pKd for ACUCAUGAAU (ssRNA) [Asw-10] , please?
A. 4.24
